All values here come from patent US20170052184A1.

Field: OD (A492). Provide a value for each of the binders that follow.
Target: T1, HCV Core1-169 (HCV-1, UniProt P26664 1-169)
T1 construct: also called recombinant HCV core antigen
T1 sequence: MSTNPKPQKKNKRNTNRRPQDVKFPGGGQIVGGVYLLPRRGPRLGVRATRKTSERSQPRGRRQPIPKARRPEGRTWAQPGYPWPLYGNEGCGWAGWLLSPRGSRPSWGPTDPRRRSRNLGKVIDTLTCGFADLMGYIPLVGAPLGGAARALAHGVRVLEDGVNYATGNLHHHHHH
Assay: EIA, core1-169 coated on plate; also: test concentration or dose not given here
Answers are plain numbers, in OD.

binder	valueUnit	OD (A492)
HCV 208A-741 (antibody, V domains shown) VH: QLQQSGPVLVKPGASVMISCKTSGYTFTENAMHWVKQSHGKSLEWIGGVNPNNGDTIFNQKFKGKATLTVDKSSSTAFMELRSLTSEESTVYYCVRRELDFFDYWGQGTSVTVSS VL: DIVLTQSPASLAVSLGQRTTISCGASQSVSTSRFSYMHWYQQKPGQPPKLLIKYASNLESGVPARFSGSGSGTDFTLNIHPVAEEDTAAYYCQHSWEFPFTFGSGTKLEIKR	OD	1.2
HCV 208B-281 (antibody, V domains shown) VH: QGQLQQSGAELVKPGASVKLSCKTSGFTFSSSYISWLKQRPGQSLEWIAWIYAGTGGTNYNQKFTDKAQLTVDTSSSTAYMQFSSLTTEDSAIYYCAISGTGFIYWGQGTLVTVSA VL: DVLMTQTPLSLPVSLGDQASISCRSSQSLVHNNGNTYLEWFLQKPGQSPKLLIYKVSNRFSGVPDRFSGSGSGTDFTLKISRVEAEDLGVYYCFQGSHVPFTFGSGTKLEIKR	OD	0.09
HCV 208B-556 (antibody, V domains shown) VH: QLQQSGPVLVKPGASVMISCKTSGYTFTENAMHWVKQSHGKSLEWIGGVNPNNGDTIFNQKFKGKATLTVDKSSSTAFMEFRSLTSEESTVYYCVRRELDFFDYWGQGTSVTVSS VL: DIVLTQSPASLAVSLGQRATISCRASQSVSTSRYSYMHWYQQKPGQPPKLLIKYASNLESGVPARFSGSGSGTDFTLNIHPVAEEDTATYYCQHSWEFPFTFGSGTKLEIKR	OD	0.74
HCV 208B-793 (antibody, V domains shown) VH: EVKLVESGGGLVQPGGSLKLSCAASGFTFSSYAMSWVRQTPERRLEWVTYISNGGGSTYYSDTVKGRFTFSRDNAKNTLYLQMSSLKSEDTAMYYCARHGLGRTGFASWGQGTLVTVSA VL: DIVMTQSHKFMSTSVGDRVSITCKASQDVGTAVAWYQQKPGQSPKLLIYWASTRHTGVPDRFTGSGSGTDFTLTISNVQSEDLADYFCQQYSNYLTFGAGTKLEVKR	OD	0.85

# evaluate next
[in] Give me measured OD (A492), please, for this binder: HCV 208B-251 (antibody, V domains shown) VH: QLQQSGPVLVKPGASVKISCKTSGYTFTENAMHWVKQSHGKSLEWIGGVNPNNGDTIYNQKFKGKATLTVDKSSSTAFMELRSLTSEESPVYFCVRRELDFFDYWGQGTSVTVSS VL: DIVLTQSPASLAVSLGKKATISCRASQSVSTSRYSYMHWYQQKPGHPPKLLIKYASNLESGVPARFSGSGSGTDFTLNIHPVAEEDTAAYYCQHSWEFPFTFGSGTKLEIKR
[out] 0.79
